experimental target: UniProt Q5U3Y7
Sequence (Q5U3Y7 1-176): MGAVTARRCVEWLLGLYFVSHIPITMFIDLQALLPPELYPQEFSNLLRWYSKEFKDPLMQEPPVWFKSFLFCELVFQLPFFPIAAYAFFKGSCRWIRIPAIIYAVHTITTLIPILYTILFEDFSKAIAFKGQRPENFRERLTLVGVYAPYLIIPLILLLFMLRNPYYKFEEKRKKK
The threshold is 1000 nM. Values of Ki beneath it are tagged TRUE; values meeting or exceeding it are tagged FALSE.

Prompt line: Please check: Ki for O=C(NC/C=C/CN1CCN(c2ccccc2OCCF)CC1)c1ccc(-c2ccsc2)cc1.O=C(O)C(=O)O [Compound 21e] , strictly under 1000 nM or not?
Response line: FALSE

Prompt line: API: query returns whether the compound falls strictly under 1000 nM in Ki. Query: O=C(NC/C=C/CN1CCN(c2ccccc2OCCF)CC1)c1ccc(CCF)cc1.O=C(O)C(=O)O [Compound 21b]
Response line: FALSE

* * *

experimental target: σ1 receptor (Cavia porcellus, UniProt Q60492)
Sequence (Q60492 whole entry): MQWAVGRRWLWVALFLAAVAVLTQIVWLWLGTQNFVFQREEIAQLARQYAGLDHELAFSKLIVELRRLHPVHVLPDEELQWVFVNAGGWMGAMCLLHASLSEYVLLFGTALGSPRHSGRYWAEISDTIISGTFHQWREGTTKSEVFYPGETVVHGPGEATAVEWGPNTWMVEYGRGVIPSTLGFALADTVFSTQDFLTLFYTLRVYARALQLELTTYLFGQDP
experiment notes: σ1 receptor binding assay
Set-up: species or system guinea pig
condition notes: ratio of D3 and σ1 Ki values
Here, each record is paired with measured D3/ σ1 Ratio data.

Recorded D3/ σ1 Ratio, per entry:
The recorded D3/ σ1 Ratio for O=C(NC/C=C/CN1CCN(c2ccccc2OCCF)CC1)c1ccc(CCF)cc1.O=C(O)C(=O)O [Compound 21b] is 6,541

Recorded result, COc1ccccc1N1CCN(CCCCNC(=O)c2ccc(OCCOCCOCCF)cc2)CC1.O=C(O)C(=O)O [Compound 18c] , D3/ σ1 Ratio: 1,159

For record O=C(NC/C=C/CN1CCN(c2ccccc2OCCF)CC1)c1ccc(-c2ccsc2)cc1.O=C(O)C(=O)O [Compound 21e] the listed D3/ σ1 Ratio is 7,076

Continuing:
According to the records, this compound COc1ccccc1N1CCN(CCCCNC(=O)c2ccc(N(C)C)cc2)CC1 [Compound 1, reference compound] displays D3/ σ1 Ratio of 1,573

* * *

Quick record of Ki values for σ2 receptor (Rattus norvegicus, UniProt Q5U3Y7).
# unit: nM | format: bare number

Per the reported σ2 receptor (Rattus norvegicus, UniProt Q5U3Y7) data, COc1ccccc1N1CCN(CCCCNC(=O)c2ccc(OCCOCCOCCF)cc2)CC1.O=C(O)C(=O)O [Compound 18c] has Ki of 1120

Record COc1ccccc1N1CCN(CCCCNC(=O)c2ccc(OCCF)cc2)CC1 [Compound 18a] has σ2 receptor (Rattus norvegicus, UniProt Q5U3Y7) Ki equal to 660

Ki on σ2 receptor (Rattus norvegicus, UniProt Q5U3Y7) for COc1ccccc1N1CCN(CCCCNC(=O)c2ccc(N(C)C)cc2)CC1 [Compound 1, reference compound] is 1570

Continuing:
Assay σ2 receptor (Rattus norvegicus, UniProt Q5U3Y7), sample COc1ccccc1N1CCN(CCCCNC(=O)c2ccc(CCF)cc2)CC1 [Compound 2, reference compound] , Ki read: 2210
